test system: KARPAS-1106P (B-Cell Non-Hodgkin's Lymphoma); assay: combination Emax (second highest fraction inhibited in the dose matrix, 72 h); higher = more inhibition; extreme values may be limits of the assay
Give t when the value for combination Emax is at least 0.9. Give f when it is less.

Quick check: does COc1cc2c(cc1OCCCCCOc1cc3c(cc1OC)C(=O)N1C=C(C)C[C@H]1C=N3)N=C[C@@H]1CC(C)=CN1C2=O [SG3199] + O=C(c1cc(Cc2n[nH]c(=O)c3ccccc23)ccc1F)N1CCN(C(=O)C2CC2)CC1 [Olaparib] (first compound max 0.001 µM, 7x7, partner max 10 µM) have combination Emax greater than or equal to 0.9? f

Quick check: does Cc1cc2ncnn2cc1Nc1ncc2c(n1)n(C1CCOCC1)c(=O)n2C [AZD7648] + O=C(c1cc(Cc2n[nH]c(=O)c3ccccc23)ccc1F)N1CCN(C(=O)C2CC2)CC1 [Olaparib] (first compound max 10 µM, 7x7, partner max 10 µM) have combination Emax greater than or equal to 0.9? f

Quick check: does CC1(C)CCC(CN2CCN(c3ccc(C(=O)NS(=O)(=O)c4ccc(NCC5CCOCC5)c([N+](=O)[O-])c4)c(Oc4cnc5[nH]ccc5c4)c3)CC2)=C(c2ccc(Cl)cc2)C1 [Venetoclax] + CS(=O)(=O)CCNCc1ccc(-c2ccc3ncnc(Nc4ccc(OCc5cccc(F)c5)c(Cl)c4)c3c2)o1 [Lapatinib] (first compound max 1 µM, 7x7, partner max 10 µM) have combination Emax greater than or equal to 0.9? f

Quick check: does CN(CCO)CC[C@H](CSc1ccccc1)Nc1ccc(S(=O)(=O)NC(=O)c2ccc(N3CCC([C@@H](O)c4ccccc4-c4ccc(Cl)cc4)CC3)cc2)cc1S(=O)(=O)C(F)(F)F [AZD4320] + CN(C)CCCOc1ccc(-c2ccc3ncc4c(c3c2)n(C2CCOCC2)c(=O)n4C)cn1 [AZD0156] (first compound max 1 µM, 7x7, partner max 1 µM) have combination Emax greater than or equal to 0.9? f

Quick check: does CS(=O)(=O)CCNCc1ccc(-c2ccc3ncnc(Nc4ccc(OCc5cccc(F)c5)c(Cl)c4)c3c2)o1 [Lapatinib] + NC1(c2ccc(-c3nc4ccn5c(=O)[nH]nc5c4cc3-c3ccccc3)cc2)CCC1 [MK-2206] (first compound max 10 µM, 7x7, partner max 10 µM) have combination Emax greater than or equal to 0.9? f

Quick check: does NC1(C(=O)N[C@@H](CCO)c2ccc(Cl)cc2)CCN(c2ncnc3[nH]ccc23)CC1 [Capivasertib] + CCN(CCO)CCCOc1ccc2c(Nc3cc(CC(=O)Nc4cccc(F)c4)[nH]n3)ncnc2c1 [AZD2811] (first compound max 10 µM, 7x7, partner max 1 µM) have combination Emax greater than or equal to 0.9? f

Quick check: does CC1(C)CCC(CN2CCN(c3ccc(C(=O)NS(=O)(=O)c4ccc(NCC5CCOCC5)c([N+](=O)[O-])c4)c(Oc4cnc5[nH]ccc5c4)c3)CC2)=C(c2ccc(Cl)cc2)C1 [Venetoclax] + C[C@@H]1COCCN1C2=NC(=NC(=C2)C3(CC3)[S@](=N)(=O)C)C4=C5C=CNC5=NC=C4 [AZD6738] (first compound max 1 µM, 7x7, partner max 10 µM) have combination Emax greater than or equal to 0.9? f

Quick check: does C=CCn1c(=O)c2cnc(Nc3ccc(N4CCN(C)CC4)cc3)nc2n1-c1cccc(C(C)(C)O)n1 [AZD1775] + Nc1ccn([C@@H]2O[C@H](CO)[C@@H](O)C2(F)F)c(=O)n1 [Gemcitabine] (first compound max 1 µM, partner max 0.3 µM) have combination Emax greater than or equal to 0.9? t

Quick check: does O=C(c1cc(Cc2n[nH]c(=O)c3ccccc23)ccc1F)N1CCN(C(=O)C2CC2)CC1 [Olaparib] + COc1nnc2ccc(N3CCC(c4ccc(OCCN5CCN(C)C(=O)[C@H]5C)cc4)CC3)nn12 [AZD5153] (first compound max 10 µM, 7x7, partner max 1 µM) have combination Emax greater than or equal to 0.9? f

Quick check: does Cc1c2c(nn1C)CSCc1cc(n(C)n1)CSc1cc(c3ccccc3c1)OCCCc1c(C(=O)O)n(C)c3c-2c(Cl)ccc13 [AZD5991] + C[C@@H]1COCCN1C2=NC(=NC(=C2)C3(CC3)[S@](=N)(=O)C)C4=C5C=CNC5=NC=C4 [AZD6738] (first compound max 1 µM, 7x7, partner max 10 µM) have combination Emax greater than or equal to 0.9? t

Quick check: does COc1nnc2ccc(N3CCC(c4ccc(OCCN5CCN(C)C(=O)[C@H]5C)cc4)CC3)nn12 [AZD5153] + C[C@@H]1COCCN1C2=NC(=NC(=C2)C3(CC3)[S@](=N)(=O)C)C4=C5C=CNC5=NC=C4 [AZD6738] (first compound max 1 µM, 7x7, partner max 10 µM) have combination Emax greater than or equal to 0.9? t
